System: OVCAR-5 ovarian
Method summary: NCI tumour cell line growth inhibition, 48 h
Readout kind: TGI

For the compound CCOc1cc2c[n+](C)c3c4cc(OC)c(OC)cc4ccc3c2cc1OC , the measured TGI on OVCAR-5 ovarian was > 100 µM

Field TGI (system: OVCAR-5 ovarian) for entry O=C(N/N=C\c1c(O)ccc2ccccc12)C1CC1 = > 100 µM

The recorded TGI with OVCAR-5 ovarian for CC(=O)N=C1C=C(NC(C)=O)C(=O)c2ccccc21 was 4.58 µM

Log: OVCAR-5 ovarian, compound COc1cc(/C=N/c2nncs2)ccc1O , TGI = > 100 µM

TGI value, target or system OVCAR-5 ovarian, for COc1ccc(/C=C/C(=O)c2sc(NC(=S)NC(=O)c3ccccc3F)nc2C)cc1OC : > 100 µM

Readout TGI for Cc1ccc(-c2cc(C(=O)N3N=C(c4ccc(N)cc4)CC3c3ccc(Cl)cc3)c3ccccc3n2)cc1 (stereo unspecified) , test system OVCAR-5 ovarian, was > 100 µM

* * *

Tested on: SF-295 CNS
Method summary: NCI tumour cell line growth inhibition, 48 h
Could you please report measured TGI for the items listed next?

For record Oc1ccc(N=Cc2ccc(C=Nc3ccc(O)cc3)cc2)cc1 the listed TGI is 32.3 µM

// TGI lookup, compound = Cc1nn2c(C(=O)N/N=C/c3ccccc3O)c(C)nc2s1 , result: > 100 µM

response.value for COc1ccc(/C=C2/N=C(N/N=C\C(O)C(O)C(O)C(O)CO)NC2=O)cc1 (stereo not drawn) (field: TGI) = > 100 µM

Briefly, TGI measured for FC(F)(F)c1ccc(-c2cncn2-c2ccccc2)cc1 : > 100 µM

Given item N#Cc1c(-c2ccccc2)c(C#N)c(=S)n(C2OC(CO)C(O)C(O)C2O)c1N (stereo not drawn) , the value recorded as its TGI is > 100 µM

For this compound ( COc1ccc(P2(=S)Oc3ccc(C(c4ccccc4)(c4ccccc4)c4ccccc4)cc3O2)cc1 (stereo not drawn) ), measured TGI is 33.5 µM

Noted for Cc1ccc2c(c1)C(=O)c1[nH]c3ccc(F)cc3c1CO2 : its TGI reads 31.6 µM

Item: Nc1cc2c(nc3c4ccccc4c(N)cc3[n+]2-c2cccc3ccccc23)c2ccccc12 (tested in a mixture with another compound) | TGI: 12.4 µM

Query CN(C)CCCN1c2ccccc2CCc2cccc([N+](=O)[O-])c21 yields TGI of 30.1 µM

The value of TGI measured for the compound COc1ccc2cc3[n+](cc2c1O)CCc1cc2c(cc1-3)OCO2 turned out to be > 100 µM

TGI measured on CCOC(=O)C1=C(C)N(c2ccc(OC)cc2)C2(O)C=CC(=O)C3C(=O)N(c4ccccc4)C(=O)C132 (stereo not drawn) = 28.6 µM

What the record says about COC(=O)CCCc1c(-c2[nH]c3ccccc3c2CCCC(=O)OC)[nH]c2ccccc12 : TGI is > 100 µM

Record summary for CCOP(=O)(OCC)/C(C#N)=C/c1cnc(C)[nH]1 : reported TGI = > 100 µM

* * *

Test system: SN12C renal
Method summary: NCI tumour cell line growth inhibition, 48 h
Readout kind: TGI

Please fill in: TGI reported for O[N+]1=CC=CCC1=S.On1ccccc1=S.[Zn] = 2.53 µM

Form field TGI, entry CC(C)(C)OC(=O)N1CCCC1=O : > 10 µM

So, CCc1n[nH]c(=O)n1NC(=O)CCCC(=O)O ? Its TGI was > 100 µM

Memo: O=C(/C=C1\C[C@H]2C=Nc3ccccc3C(=O)N2C1)NCCCNC(=O)/C=C1\C[C@H]2C=Nc3ccccc3C(=O)N2C1 , reported TGI: 37.9 µM

For reference, reported TGI for CCCCCCc1nn2c(-c3ccncc3)nnc2s1 stands at > 10 µM

Entry CCCCOC(=O)NC(Nc1ccc(S(N)(=O)=O)cc1)(C(F)(F)F)C(F)(F)F — recorded TGI = > 100 µM

TGI reported for this compound C[C@@H]1CCC[C@]2(C)O[C@H]2CC[C@@](C)(O)[C@@H]2CC3=C(CO)C(=O)O[C@H]3[C@H]1O2 : > 50 µM

response.value for Cn1ccnc1Sc1ccc(/C=N/NC(=O)c2ccccc2[N+](=O)[O-])cc1[N+](=O)[O-] (field: TGI) = > 100 µM

Looking up COc1ccc(CC#N)c(OCc2ccccc2)c1 , I found its TGI recorded as > 100 µM

Entry CC(=O)N=C1C=C(NC(C)=O)C(=O)c2ccccc21 , TGI reported as 3.47 µM

Record summary for COc1ccc(/C=C2/N=C(N/N=C\C(O)C(O)C(O)C(O)CO)NC2=O)cc1 (configuration not stated) : reported TGI = > 100 µM

Short answer for c1ccc2c(c1)SC1=Nc3sc4ccccc4[n+]3CN12 : TGI was 71.1 µM

For this compound ( COc1ccc2nc3cc(Cl)ccc3c(NCCCCCN3CCCCC3)c2c1 ), measured TGI is 4.7 µM

Entry Cc1c2cnccc2c(C)c2c1c1cc(CO)ccc1n2C ; TGI = 1.65 µM

TGI measured on CNC(=O)C(C)C1C(=O)/C(=C(O)/C=C\C(C)=C\C(C)C2OC3(C)OC(C=CC34CO4)C2C)C(=O)N1C1CCC(O)C(C)O1 (configuration not stated) = > 100 µM

Note to self: TGI recorded for C=CCC12CC(=O)CCC1CC(=O)C2 (configuration not stated) was > 100 µM

// recorded TGI for COc1ccc(OC)c(N2C(=O)/C(=C\c3ccccc3)SC2c2cc(OC)c(OC)c(OC)c2)c1 (configuration not stated) : > 100 µM

Summary for this compound, O=C(O)C1CCCN1C(=O)c1cc(Cl)ccn1 (configuration not stated) : TGI is > 100 µM

// FC(F)(F)c1ccc(-c2cncn2-c2ccccc2)cc1 : TGI value = 23.5 µM

Item: CCOC(=O)C1C(=O)C(C(=O)OCC)C(c2ccccc2)N(C)C1c1ccccc1 (configuration not stated) | TGI: > 100 µM

O=C(O)CCCn1c(SCc2c(Cl)cccc2Cl)nc2ccsc2c1=O has a reported TGI of > 100 µM

Input O=C(O)C(Cc1c[nH]c2ccccc12)C(=O)NO (configuration not stated) . Output TGI: > 100 µM
